Data provenance: PubChem BioAssay AID256

Tested on: CD2F1 mice, L1210 leukemia ip, survival T/C
TEST_METHOD_NOTES: NCI In Vivo Anticancer Drug Screen. Data for tumor model L1210 Leukemia (intraperitoneal) in CD2F1 (CDF1) mice
CONDITION_SET: endpoint: mean survival time; dose: 100.0 mg/kg/injection; schedule: Q04DX002 (ip); vehicle: saline; higher = longer survival
Toxic doses and inconclusive results are not listed.
EXPERIMENTAL_READOUT: T/C

{"columns": ["MOLECULE", "ENDPOINT_RESULT"],
 "data": [
  ["CC(SC(=N)N)C(=N)N (centres undefined)", "105 % of control"],
  ["O=S(CCCCO)c1ccccc1 (centres undefined)", "104 % of control"],
  ["CN(C)C1CCCC(OC(=O)c2ccccc2)C1 (centres undefined)", "94 % of control"],
  ["CCN(CC)CCCC(C)Nc1ccnc2cc(Cl)ccc12 (centres undefined)", "91 % of control"]
]}
